These data points were gathered from the supplement of paper PMC10567573.

B1: PPP2R2C (parent)
chain: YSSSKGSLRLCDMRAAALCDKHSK

# Variants of: B1
# TEST NAME: protein stability index of a GFP-peptide fusion (GPS, HEK-293T) (PSI 1-6); higher = more stable;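 further: lentivirally expressed fusions sorted by FACS into six bins by GFP to DsRed ratio, PSI derived from sequencing read proportions per bin multiplied by bin number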
# EXPERIMENTAL SETUP: c terminus: a fixed tail appended
REPORTED ENDPOINT: protein stability index
Just the number, please, no unit after it.

Entry K24N , protein stability index reported as 2.15

Documented protein stability index of D20V : 2.58

protein stability index for A16V is 1.82
